This collection of values is drawn from the Human Domainome abundance scans (Beltran et al. 2025).

B1: Double-stranded RNA-binding protein Staufen homolog 1, residues 183 to 249; numbered along this chain, O95793 (parent)
chain: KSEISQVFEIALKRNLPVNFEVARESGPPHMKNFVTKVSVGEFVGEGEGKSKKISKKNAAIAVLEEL

- Variants of: B1
- test_method_notes: abundance fitness (aPCA) (normalised: wild type 0, dead -1); higher = more abundant; growth selection in yeast, the domain comes from the species named
- details: Homo sapiens
measure_name: abundance fitness
Write the value as a bare number.

Below are worked cases with known answers.
P17Q	-0.037
K52L	-0.228
K50P	0.078
L16H	-0.708

Input: I am curious: what abundance fitness value has been reported for "I4F" ?
Output: -0.534

Input: I am curious: what abundance fitness value has been reported for "V63Q" ?
Output: -0.597

Input: I am curious: what abundance fitness value has been reported for "N58K" ?
Output: -0.149

Input: I am curious: what abundance fitness value has been reported for "R14T" ?
Output: -0.371

Input: I am curious: what abundance fitness value has been reported for "N15G" ?
Output: 0.025

Input: I am curious: what abundance fitness value has been reported for "I4V" ?
Output: -0.059

Input: I am curious: what abundance fitness value has been reported for "Q6D" ?
Output: -0.435

Input: I am curious: what abundance fitness value has been reported for "V44Q" ?
Output: -0.074

Input: I am curious: what abundance fitness value has been reported for "K37E" ?
Output: -0.553

Input: I am curious: what abundance fitness value has been reported for "S55A" ?
Output: -0.092

Input: I am curious: what abundance fitness value has been reported for "S2A" ?
Output: -0.41

Input: I am curious: what abundance fitness value has been reported for "K53M" ?
Output: -0.278

Input: I am curious: what abundance fitness value has been reported for "E65Q" ?
Output: -0.016

Input: I am curious: what abundance fitness value has been reported for "G27I" ?
Output: -0.223

Input: I am curious: what abundance fitness value has been reported for "K56W" ?
Output: -0.825

Input: I am curious: what abundance fitness value has been reported for "K53R" ?
Output: -0.042

Input: I am curious: what abundance fitness value has been reported for "E21K" ?
Output: -0.049

Input: I am curious: what abundance fitness value has been reported for "V40Q" ?
Output: -0.542

Input: I am curious: what abundance fitness value has been reported for "I61L" ?
Output: -0.061

Input: I am curious: what abundance fitness value has been reported for "E46T" ?
Output: 0.071

Input: I am curious: what abundance fitness value has been reported for "E3H" ?
Output: -0.219

Input: I am curious: what abundance fitness value has been reported for "K37W" ?
Output: -0.442
